Test system: Escherichia coli
assay info: microbe, parasite or virus in culture
measurement conditions: ATCC 25922
Description: Antibacterial activity against Escherichia coli ATCC 25922 by microdilution assay
recorded endpoint: MIC (µg/mL)
// units = µg/mL; emit number, no label

Kindly note the recorded MIC for `CCCCCCCCO[C@@H]1[C@@H](N)[C@@H](O[C@H]2[C@H](O)[C@@H](OCCCCCCCC)[C@H](N)C[C@@H]2N)O[C@H](CN)[C@H]1O` , which is 4

Kindly note the recorded MIC for `NC[C@H]1O[C@H](O[C@H]2[C@H](O)[C@@H](OCCCc3ccc4ccccc4c3)[C@H](N)C[C@@H]2N)[C@H](N)[C@@H](OCCCc2ccc3ccccc3c2)[C@@H]1O` , which is 8

Kindly note the recorded MIC for `NC[C@H]1O[C@H](O[C@H]2[C@H](O)[C@@H](O)[C@H](N)C[C@@H]2N)[C@H](N)[C@@H](O)[C@@H]1O` , which is 32
